target: human GPR40 receptor (Homo sapiens, UniProt O14842); test: IP1 accumulation measurements using the IPOne assay system; type: cell-based; conditions: IP1 accumulation (IPOne HTRF), 1 hour stimulation; 1321N1 cells stably expressing human GPR40; read-out: EC50 values on GPR40 determined as described in (B)
Sequence (O14842 whole entry): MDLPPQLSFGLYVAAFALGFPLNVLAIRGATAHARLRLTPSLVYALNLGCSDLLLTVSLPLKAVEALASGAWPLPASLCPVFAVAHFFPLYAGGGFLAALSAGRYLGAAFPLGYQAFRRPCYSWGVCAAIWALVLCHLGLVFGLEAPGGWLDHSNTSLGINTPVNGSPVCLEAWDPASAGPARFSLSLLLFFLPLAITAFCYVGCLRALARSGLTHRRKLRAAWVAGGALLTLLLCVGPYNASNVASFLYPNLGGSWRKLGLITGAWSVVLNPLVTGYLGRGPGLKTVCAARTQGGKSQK
pEC50: −log10 of the molar value.
Give TRUE when the value for pEC50 is at least 7. Give FALSE when it is less.

{"columns": ["COMPOUND", "ASSIGNED_CATEGORY"],
 "data": [
  ["CC1=C(c2cccc3c2CC[C@H]3Oc2ccc3c(c2)OC[C@H]3CC(=O)O)C(C)(C)CCC1 [Example 48]", "TRUE"],
  ["COc1cc(-c2cccc3c2CC[C@H]3Oc2ccc3c(c2)OC[C@H]3CC(=O)O)c(F)cn1 [Example 68]", "FALSE"],
  ["Cc1cc2c(cc1O[C@@H]1CCc3c1cccc3C(F)(F)F)OCC2CC(=O)O (mixture of isomers) [Example 107]", "FALSE"]
]}

Ask: Tell me whether pEC50 is at least 7 here: Cc1ccc(C(F)(F)F)c2c1[C@H](Oc1ccc3c(c1)OC[C@H]3CC(=O)O)CC2 [Example 30]
Result: FALSE

Ask: Is the recorded value of pEC50 equal to or greater than 7 for this compound? O=C(O)C[C@@H]1COc2cc(O[C@@H]3CCc4ccc(C(F)(F)F)cc43)ccc21 [Example 19]
Result: FALSE

Ask: Quick check: does Cc1noc(C)c1-c1cccc2c1CC[C@H]2Oc1ccc2c(c1)OC[C@H]2CC(=O)O [Example 74] have pEC50 greater than or equal to 7?
Result: FALSE

* * *

Target: human GPR40 receptor (Homo sapiens, UniProt O14842)
Assay: IP1 accumulation measurements using the IPOne assay system
Type: cell-based
Conditions: IP1 accumulation (IPOne HTRF), 1 hour stimulation; 1321N1 cells stably expressing human GPR40; read-out: EC50 values on GPR40 determined as described in (B)
Procedure: (B) IP1 accumulation measurements using the IPOne assay system—1321N1 cells stably expressing human GPR40 receptor (Euroscreen, Belgium) were seeded 24 h before the assay in black clear-bottom collagen-coated 384-well plates in culture medium containing 10% FCS, 1% Na-Pyruvate and 400 μg/mL G418. IP1 is assayed according to the Manufacturer's description (Cisbio Bioassays, France). […] After an incubation time of 1 hour at room temperature plates are measured using an EnVision™, Perkin Elmer.
RECORDED_ENDPOINT: EC50 (nM)
Numbers only, in nM.

{"columns": ["COMPOUND", "TEST_SYSTEM", "EC50, nM"],
 "data": [
  ["CC(O)(CC1CCOCC1)c1cccc2c1CC[C@H]2Oc1ccc2c(c1)OC[C@H]2CC(=O)O (stereo partly shown) [Example 83]", "human GPR40 receptor (Homo sapiens, UniProt O14842)", 392],
  ["Cc1nccnc1-c1cccc2c1CC[C@H]2Oc1ccc2c(c1)OC[C@H]2CC(=O)O [Example 99]", "human GPR40 receptor (Homo sapiens, UniProt O14842)", 3270],
  ["Cc1cc(=O)n(C)c(C)c1-c1cccc2c1CC[C@H]2Oc1ccc2c(c1)OC[C@H]2CC(=O)O [Example 63]", "human GPR40 receptor (Homo sapiens, UniProt O14842)", 3150],
  ["C=CCCC(C)(O)c1cccc2c1CC[C@H]2Oc1ccc2c(c1)OC[C@H]2CC(=O)O (stereo partly shown) [Example 82]", "human GPR40 receptor (Homo sapiens, UniProt O14842)", 3350],
  ["O=C(O)C[C@@H]1COc2cc(O[C@@H]3CCc4cc(Cl)ccc43)ccc21 [Example 21]", "human GPR40 receptor (Homo sapiens, UniProt O14842)", 54]
]}

Count: 4. Required value per item: EC50.
1. O=C(O)C[C@@H]1COc2cc(O[C@@H]3CCc4c(-c5c(Cl)cccc5Cl)cccc43)ccc21 [Example 88]
2. O=C(O)C[C@@H]1COc2cc(O[C@@H]3CCc4c3cccc4-n3ccccc3=O)ccc21 [Example 51]
3. Cc1ncnc(C)c1-c1cccc2c1CC[C@H]2Oc1ccc2c(c1)OC[C@H]2CC(=O)O [Example 86]
4. O=C(O)C[C@@H]1COc2cc(O[C@@H]3CCc4c(OC(F)(F)F)cccc43)ccc21 [Example 25]

Result:
1. 28
2. 9670
3. 414
4. 18

Ask: For the record O=C(O)C[C@@H]1COc2cc(O[C@@H]3CCc4c3cccc4N3CCOCC3)ccc21 [Example 65] , what value of EC50 is listed for human GPR40 receptor (Homo sapiens, UniProt O14842)?
Result: 1850

* * *

Please provide measured pEC50 for the entries that follow.
target: human GPR40 receptor (Homo sapiens, UniProt O14842); experiment: IP1 accumulation measurements using the IPOne assay system; format: cell-based; conditions: IP1 accumulation (IPOne HTRF), 1 hour stimulation; 1321N1 cells stably expressing human GPR40; read-out: EC50 values on GPR40 determined as described in (B)
Answers are plain numbers, as −log10 of the molar value.

{"columns": ["COMPOUND", "pEC50"],
 "data": [
  ["COc1ncc(C)c(-c2cccc3c2CC[C@H]3Oc2ccc3c(c2)OC[C@H]3CC(=O)O)c1C", 7.29],
  ["COc1ccc(C)c(-c2cccc3c2CC[C@H]3Oc2ccc3c(c2)OC[C@H]3CC(=O)O)c1", 7.15],
  ["O=C(O)C[C@@H]1COc2cc(O[C@@H]3CCc4c(C5=CCCCC56CCOCC6)cccc43)ccc21", 6.91]
]}

Hi, could you look up pEC50 for each item in my list?
1. Cc1cccc(C)c1-c1cccc2c1CC[C@H]2Oc1ccc2c(c1)OC[C@H]2CC(=O)O
2. O=C(O)C[C@@H]1COc2cc(O[C@@H]3CCc4c3cccc4C(F)(F)C(F)(F)F)ccc21
3. O=C(O)C[C@H]1COc2cc(O[C@H]3CCc4c3cccc4C(F)(F)F)ccc21 (single isomer, unassigned) [Example 2]
4. Cc1cccc(C)c1-c1ccc2c(c1)CC[C@H]2Oc1ccc2c(c1)OC[C@H]2CC(=O)O
5. COc1ccc(-c2cccc3c2CC[C@H]3Oc2ccc3c(c2)OCC3CC(=O)O)cc1 (stereo partly drawn)
6. Cc1cc2c(c(C(F)(F)F)c1)CC[C@H]2Oc1ccc2c(c1)OC[C@H]2CC(=O)O
7. Cc1cccc(C)c1-c1ccc2c(c1)[C@@H](Oc1ccc3c(c1)OC[C@H]3CC(=O)O)CC2

Result:
1. 8.40
2. 7.60
3. 7.70
4. 6.95
5. 6.75
6. 7.72
7. 6.68

Provide the reported pEC50 of each entry below, same order.
1. CC1(c2cccc3c2CC[C@H]3Oc2ccc3c(c2)OC[C@H]3CC(=O)O)CC1
2. O=C(O)CC1COc2cc(OC3CCc4c3cccc4C(F)(F)F)ccc21 (mixture of isomers)
3. CC1(C)CCCC1c1cccc2c1CC[C@H]2Oc1ccc2c(c1)OCC2CC(=O)O (stereo partly drawn)
4. CC1(C)CCC[C@H]1c1cccc2c1CC[C@H]2Oc1ccc2c(c1)OC[C@H]2CC(=O)O (single isomer, unassigned)
5. COC1(c2cccc3c2CC[C@H]3Oc2ccc3c(c2)OC[C@H]3CC(=O)O)CCC1
6. Cc1ccccc1-c1cccc2c1CC[C@H]2Oc1ccc2c(c1)OC[C@H]2CC(=O)O
7. CC1(C)CCC=C1c1cccc2c1CC[C@H]2Oc1ccc2c(c1)OCC2CC(=O)O (mixture of isomers)
8. O=C(O)C[C@@H]1COc2cc(O[C@H]3CCc4ccc(Br)cc43)ccc21

Result:
[7.19, 7.16, 7.33, 7.02, 6.79, 7.28, 7.52, 5.54]

Dear colleague, could you send me pEC50 for each of the items below? Thanks.
1. Cc1ccc2c(c1C(F)(F)F)CC[C@H]2Oc1ccc2c(c1)OC[C@H]2CC(=O)O
2. CC(C)c1ccccc1-c1ccc2c(c1)CC[C@H]2Oc1ccc2c(c1)OC[C@H]2CC(=O)O
3. COC(C)(c1cccc2c1CC[C@H]2Oc1ccc2c(c1)OC[C@H]2CC(=O)O)C(C)(C)C (stereo partly drawn)

Result:
1. 7.72
2. 6.59
3. 7.12

* * *

Target: UniProtKB O14842
Assay: IP1 accumulation measurements using the IPOne assay system
Type: cell-based
Conditions: IP1 accumulation (IPOne HTRF), 1 hour stimulation; 1321N1 cells stably expressing human GPR40; read-out: EC50 values on GPR40 determined as described in (B)
Method: (B) IP1 accumulation measurements using the IPOne assay system—1321N1 cells stably expressing human GPR40 receptor (Euroscreen, Belgium) were seeded 24 h before the assay in black clear-bottom collagen-coated 384-well plates in culture medium containing 10% FCS, 1% Na-Pyruvate and 400 μg/mL G418. IP1 is assayed according to the Manufacturer's description (Cisbio Bioassays, France). […] After an incubation time of 1 hour at room temperature plates are measured using an EnVision™, Perkin Elmer.
RECORDED_ENDPOINT: pEC50
One number for each entry, as −log10 of the molar value.

Some entries whose results are on file:
{"columns": ["MOLECULE", "pEC50"],
 "data": [
  ["Cc1cn(C)c(=O)c(C)c1-c1cccc2c1CC[C@H]2Oc1ccc2c(c1)OC[C@H]2CC(=O)O", 6.81],
  ["CC1OC(c2cccc3c2CC[C@H]3Oc2ccc3c(c2)OC[C@H]3CC(=O)O)C1(C)C (single isomer, unassigned) [Example 42]", 6.88]
]}

Ask: // pEC50 lookup, key: CC1(C)CCCO[C@@H]1c1cccc2c1CC[C@H]2Oc1ccc2c(c1)OC[C@H]2CC(=O)O (single isomer, unassigned)
Result: 7.10
